# assayed target: STAT5b N-terminal domain (NTD) (Homo sapiens)
# Sequence (P51692 1-126 limits assumed): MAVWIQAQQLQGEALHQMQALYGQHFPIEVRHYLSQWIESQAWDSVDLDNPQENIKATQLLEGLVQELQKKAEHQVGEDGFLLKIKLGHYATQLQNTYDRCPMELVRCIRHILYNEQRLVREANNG
# method description: Isothermal titration calorimetry (ITC), STAT5b-NTD
# condition notes: ITC, 25 °C, 1X PBS pH 7.4, 8% DMSO, single-site fit
Below, each entry is listed with its recorded pKd.
FYI, pKd means -log10 of a concentration in mol per litre.

Please review the entries below; each comes with its answer.
compound	assayed target	pKd
C[C@@](O)(CNC(=O)NCc1cccc2ccccc12)c1ccc2c(c1)OCO2 [S5N_M2]	STAT5b N-terminal domain (NTD) (Homo sapiens)	4.46
N[C@H]1C[C@@H](c2cc(N[C@H](CO)Cc3ccccc3)ncn2)C1 [S5N_M7]	STAT5b N-terminal domain (NTD) (Homo sapiens)	3.57
CC(=O)N1CC[C@@H](NC(=O)c2cc3ccccc3cc2O)[C@H](O)C1 [S5N_M6]	STAT5b N-terminal domain (NTD) (Homo sapiens)	4.24

Request: State the recorded pKd for this entry: O=C(NCC[C@@H](O)c1ccc2c(c1)OCO2)C(=O)Nc1ccc(F)c(Cl)c1 [S5N_M1]
Result: 3.32

Request: Please do the same for O=C(NC[C@@]1(O)CCCNC1)Nc1cc(Cl)ccc1Cl [S5N_M4] as well.
Result: 4.09

* * *

# assayed target: STAT3 (127–770) SH2 domain (Homo sapiens, UniProt P40763)
# Construct: For STAT3 (127–770), the final concentration of the protein was 200 nM; made in house
# Sequence (P40763 127-770): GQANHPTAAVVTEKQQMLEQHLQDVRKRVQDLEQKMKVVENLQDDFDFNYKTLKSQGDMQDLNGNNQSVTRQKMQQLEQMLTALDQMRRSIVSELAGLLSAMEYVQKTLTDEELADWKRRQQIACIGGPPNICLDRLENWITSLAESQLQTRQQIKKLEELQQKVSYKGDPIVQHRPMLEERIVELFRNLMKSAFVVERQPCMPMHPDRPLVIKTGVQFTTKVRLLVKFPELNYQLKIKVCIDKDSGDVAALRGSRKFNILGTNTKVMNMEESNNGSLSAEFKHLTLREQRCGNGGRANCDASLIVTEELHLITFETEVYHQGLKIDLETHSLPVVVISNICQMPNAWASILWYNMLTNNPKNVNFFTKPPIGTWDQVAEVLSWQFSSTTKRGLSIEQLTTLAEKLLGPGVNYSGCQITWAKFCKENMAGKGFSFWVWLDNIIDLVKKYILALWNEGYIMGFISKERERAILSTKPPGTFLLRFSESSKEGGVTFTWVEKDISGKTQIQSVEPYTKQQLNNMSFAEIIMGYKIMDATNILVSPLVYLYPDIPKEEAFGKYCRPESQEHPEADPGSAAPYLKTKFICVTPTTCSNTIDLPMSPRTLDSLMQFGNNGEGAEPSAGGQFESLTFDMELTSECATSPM
# method description: Fluorescence polarization assay (FP-assay), STAT3 SH2 domain
# Assay type: binding
# condition notes: FP-assay, mean IC50, at least three biological replicates
measurement label: IC50 (µM)
Return type: number; implicit unit µM.

Please review the entries below; each comes with its answer.
compound	unit of measurement	IC50
NC(=O)C1CCN(C(=O)c2ccccc2NC(=O)c2cccc(NC(=O)CCn3ccnc3)c2)CC1 [S3_E3]	µM	472
Cc1c(O)ccc2c(CC(=O)NCC(=O)NCC(=O)O)cc(=O)oc12 [S3_O10]	µM	99.9

--- query ---
Request: State the recorded IC50 for this entry: Cc1cccc(OC[C@@H](O)CN(C(=O)NC[C@H]2CC(C(N)=O)=NO2)C(C)C)c1 [S3_E7]
Result: 62.7

* * *

# assayed target: STAT3 (127–770) SH2 domain (Homo sapiens, UniProt P40763)
# Construct: For STAT3 (127–770), the final concentration of the protein was 200 nM; made in house
# method description: Fluorescence polarization assay (FP-assay), STAT3 SH2 domain
# Format: binding
# Parameters: key: A compound was identified as active, if it had a mean IC50 value under 100 μM
measurement label: identified as active in FP-assay

Please review the entries below; each comes with its answer.
compound	assayed target	measurement label	result
NC(=O)CSc1ccccc1C(=O)NC[C@H](O)COc1ccc2c(c1)OCO2 [S3_E4]	STAT3 (127–770) SH2 domain (Homo sapiens, UniProt P40763)	identified as active in FP-assay	active
C[C@@H](NC(=O)[C@@H]1CCCC[C@@H]1C(=O)O)c1ccncc1 [S3_M2]	STAT3 (127–770) SH2 domain (Homo sapiens, UniProt P40763)	identified as active in FP-assay	active
Cc1c(O)ccc2c(CC(=O)NCC(=O)NCC(=O)O)cc(=O)oc12 [S3_O10]	STAT3 (127–770) SH2 domain (Homo sapiens, UniProt P40763)	identified as active in FP-assay	active
O=[N+]([O-])c1ccccc1S(=O)(=O)NC[C@H](O)COc1ccc2c(c1)OCO2 [S3_E6]	STAT3 (127–770) SH2 domain (Homo sapiens, UniProt P40763)	identified as active in FP-assay	active
O=C(O)c1[nH]c2ccccc2c1C(=O)O [S3_M5, [OH]C(=O)c([nH]1)c(C(=O)[OH])c(c12)cccc2]	STAT3 (127–770) SH2 domain (Homo sapiens, UniProt P40763)	identified as active in FP-assay	active

Request: State the recorded identified as active in FP-assay for this entry: Cc1cccc(OC[C@@H](O)CN(C(=O)NC[C@H]2CC(C(N)=O)=NO2)C(C)C)c1 [S3_E7]
Result: active

Request: Please do the same for COc1ccccc1COC[C@@H](O)CN[C@H](C)c1cccc(S(N)(=O)=O)c1 [S3_E5] as well.
Result: active

Request: Please do the same for O=C(O)CCCn1ccc2c(nnc3ccnn32)c1=O [S3_M13, n1ccc(nn2)n1c(c23)ccn(c3=O)CCCC([OH])=O] as well.
Result: active

* * *

Below, each entry is listed with its recorded pIC50.
# assayed target: STAT5b (136–703) SH2 domain (Homo sapiens, UniProt P51692)
FYI, pIC50 means -log10 of a concentration in mol per litre.

Please review the entries below; each comes with its answer.
smiles entry	assayed target	measurement label	quantitative readout
O=C(O)[C@@H](O)[C@@H](O)c1nc2ccccc2[nH]1	STAT5b (136–703) SH2 domain (Homo sapiens, UniProt P51692)	pIC50	4.79
COc1cnc(CSc2nc(C)cc(C)n2)cc1OCC(N)=O	STAT5b (136–703) SH2 domain (Homo sapiens, UniProt P51692)	pIC50	4.20
Cc1c(CC(=O)N[C@H](CCCCNC(N)=O)C(=O)O)c(=O)oc2cc(O)ccc12	STAT5b (136–703) SH2 domain (Homo sapiens, UniProt P51692)	pIC50	3.42

--- query ---
Request: State the recorded pIC50 for this entry: O=C(CCc1nc2ccccc2[nH]1)NCc1cc(-c2ccccc2)[nH]n1
Result: 4.37
